GI50: recorded values
Test system: PANC-1
run description: SRB colorimetric assay of cell growth and viability, PANC-1
Assay type: cell-based, human
study conditions: 48 hours exposure
Where a SMILES comes first, the peptide text is derived from it. Bridges are numbered along the chain shown (N, C = ends). [ ]: non-standard residue; d: D form. The star is where a group is joined. d(aIle) = CC[C@H](C)[C@@H](N)C(=O)O; d(aThr) = C[C@@H](O)[C@@H](N)C(=O)O; Hexanoyl(5-Me) = CC(C)CCCC(=O)*; Orn = NCCC[C@H](N)C(=O)O; Dhb = C/C=C(\N)C(=O)O
# value in nM; strip the unit string

INSERT INTO measurements (molecule, reading) VALUES
  ('C/C=C1\NC(=O)[C@H](Cc2ccccc2)NC(=O)[C@@H](C(C)C)NC(=O)[C@@H]([C@@H](C)CC)NC(=O)[C@H](NC(=O)[C@H](NC(=O)[C@H](CCCN)NC(=O)[C@H]2CCCN2C(=O)[C@H](NC(=O)[C@@H](NC(=O)[C@H](CC(C)C)NC(=O)CCCC(C)C)C(C)C)C(C)C)[C@@H](C)CC)[C@@H](C)OC(=O)[C@H](C(C)C)NC1=O [Compound 54, [Leu^12, noD-Val^13]-KF] ({Hexanoyl(5-Me)}-LV[dV][dP][Orn][d(aIle)][d(aThr)][d(aIle)][dV]F[Dhb]V; ester 7-C)', 863);

Let us move to another entry and its GI50.
Ask: Give its GI50 value. Item: C/C=C1\NC(=O)[C@H](Cc2ccccc2)NC(=O)[C@@H](C(C)C)NC(=O)[C@@H]([C@@H](C)CC)NC(=O)[C@H](NC(=O)[C@H](NC(=O)[C@H](CCCCN)NC(=O)[C@H]2CCCN2C(=O)[C@H](NC(=O)[C@@H](NC(=O)[C@@H](NC(=O)[C@H](NC(=O)CC[C@@H](C)CC)C(C)C)[C@@H](C)O)C(C)C)C(C)C)[C@@H](C)CC)[C@@H](C)OC(=O)[C@H](C(C)C)NC1=O [Compound 30, [Lys^8, (4S)-MeHex^14]-KF]
Reply: 2170
